Source listed as patent US10081635B2.

Molecular target: Human JAK1 (Homo sapiens (Human))
Sequence (P23458 whole entry): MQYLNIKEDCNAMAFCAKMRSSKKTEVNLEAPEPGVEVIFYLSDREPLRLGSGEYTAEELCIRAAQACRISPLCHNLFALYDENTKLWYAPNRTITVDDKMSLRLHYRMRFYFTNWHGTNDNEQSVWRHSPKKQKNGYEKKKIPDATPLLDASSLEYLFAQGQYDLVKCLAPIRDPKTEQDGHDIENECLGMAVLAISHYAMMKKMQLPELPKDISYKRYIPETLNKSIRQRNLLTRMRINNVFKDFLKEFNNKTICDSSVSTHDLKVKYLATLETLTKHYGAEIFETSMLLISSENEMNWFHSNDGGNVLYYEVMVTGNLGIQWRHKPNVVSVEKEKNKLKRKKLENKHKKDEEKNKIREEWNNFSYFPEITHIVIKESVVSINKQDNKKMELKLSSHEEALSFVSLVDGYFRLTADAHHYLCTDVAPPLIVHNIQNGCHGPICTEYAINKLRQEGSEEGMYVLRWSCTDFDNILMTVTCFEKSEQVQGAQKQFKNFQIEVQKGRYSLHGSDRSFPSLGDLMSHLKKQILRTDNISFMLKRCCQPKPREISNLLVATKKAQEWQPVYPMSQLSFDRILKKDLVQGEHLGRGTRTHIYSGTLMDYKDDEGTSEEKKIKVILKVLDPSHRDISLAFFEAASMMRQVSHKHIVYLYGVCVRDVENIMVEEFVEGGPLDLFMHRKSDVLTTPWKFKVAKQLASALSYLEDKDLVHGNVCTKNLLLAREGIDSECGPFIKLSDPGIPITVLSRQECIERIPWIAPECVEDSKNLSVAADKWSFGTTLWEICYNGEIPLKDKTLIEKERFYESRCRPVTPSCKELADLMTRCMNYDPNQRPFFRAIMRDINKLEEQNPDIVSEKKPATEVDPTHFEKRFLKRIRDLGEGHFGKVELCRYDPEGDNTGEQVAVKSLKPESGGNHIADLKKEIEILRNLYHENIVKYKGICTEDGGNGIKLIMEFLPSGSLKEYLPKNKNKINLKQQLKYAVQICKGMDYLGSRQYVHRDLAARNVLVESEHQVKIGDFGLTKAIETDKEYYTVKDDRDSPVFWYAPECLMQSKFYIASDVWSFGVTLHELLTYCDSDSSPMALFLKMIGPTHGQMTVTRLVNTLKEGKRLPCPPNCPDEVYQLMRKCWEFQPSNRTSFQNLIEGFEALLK
Assay: In vitro kinase inhibition test, JAK1 (33P-ATP filter scintillation)
Type: biochemical
Conditions: compound at 1 uM; read-out: JAK1 kinase-phosphorylation inhibitory level (% inhibition)
RESULT_TYPE: inhibition at 1 µM (%)

Consider the following illustrative entries.
- COMPOUND: "CN(c1ncnc2[nH]ccc12)[C@H]1CN(S(=O)(=O)c2cccc([N+](=O)[O-])c2)CC12CC2"
  TESTED_ON: "Human JAK1 (Homo sapiens (Human))"
  inhibition at 1 µM [%]: 100
- COMPOUND: "CN(c1ncnc2[nH]ccc12)[C@H]1CN(S(=O)(=O)N2CCCCC2)CC12CC2"
  TESTED_ON: "Human JAK1 (Homo sapiens (Human))"
  inhibition at 1 µM [%]: 98
- COMPOUND: "CN(c1ncnc2[nH]ccc12)[C@H]1CN(S(=O)(=O)c2cccc(C#N)c2)CC12CC2"
  TESTED_ON: "Human JAK1 (Homo sapiens (Human))"
  inhibition at 1 µM [%]: 99
- COMPOUND: "CC(=O)N1CCC(C(=O)N2C[C@H](N(C)c3ncnc4[nH]ccc34)C3(CC3)C2)CC1"
  TESTED_ON: "Human JAK1 (Homo sapiens (Human))"
  inhibition at 1 µM [%]: 88
- COMPOUND: "CN(c1ncnc2[nH]ccc12)C1CN(S(=O)(=O)CCN)CC12CC2 (stereo not drawn)"
  TESTED_ON: "Human JAK1 (Homo sapiens (Human))"
  inhibition at 1 µM [%]: 91
- COMPOUND: "CN(c1ncnc2[nH]ccc12)[C@H]1CN(S(=O)(=O)c2ccccc2F)CC12CC2"
  TESTED_ON: "Human JAK1 (Homo sapiens (Human))"
  inhibition at 1 µM [%]: 98
- COMPOUND: "CN(c1ncnc2[nH]ccc12)[C@H]1CN(S(=O)(=O)c2ccccc2)CC12CC2"
  TESTED_ON: "Human JAK1 (Homo sapiens (Human))"
  inhibition at 1 µM [%]: 97
- COMPOUND: "CN(c1ncnc2[nH]ccc12)[C@H]1CN(S(=O)(=O)c2ccc3ccccc3c2)CC12CC2"
  TESTED_ON: "Human JAK1 (Homo sapiens (Human))"
  inhibition at 1 µM [%]: 98
- COMPOUND: "CCN1C[C@H](N(C)c2ncnc3[nH]ccc23)C2(CC2)C1"
  TESTED_ON: "Human JAK1 (Homo sapiens (Human))"
  inhibition at 1 µM [%]: 42
- COMPOUND: "CN(c1ncnc2[nH]ccc12)[C@H]1CN(C(=O)Nc2ccc(Cl)cc2Cl)CC12CC2"
  TESTED_ON: "Human JAK1 (Homo sapiens (Human))"
  inhibition at 1 µM [%]: 88

[a] CN(c1ncnc2[nH]ccc12)[C@H]1CN(S(=O)(=O)C(F)(F)F)CC12CC2
[b] CN(c1ncnc2[nH]ccc12)[C@H]1CN(C(=S)Nc2cc(C(F)(F)F)cc(C(F)(F)F)c2)CC12CC2
[c] CN(c1ncnc2[nH]ccc12)C1CN(C(=O)CCN)CC12CC2 (stereo not drawn)
Exam item: Please rank these compounds by inhibition at 1 µM in descending order. Would you mind listing the labels in the order asked for?
Marked response: a, b, c
(a: 97%, b: 62%, c: 34%)
